Test system: WNK4;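 note: KINOMEscan kinase panel screen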
run-conditions: concentration: 1 μM, replicates: in singlicate; n = 1
Exercise: for every item that follows, state its recorded %Inh.
Record the value in %, omitting the unit from your answer.

In: State, in one line, measured %Inh of CCCc1ccc(S(=O)(=O)NC2CCN(c3ccnc(Nc4ccc(OC)cc4)n3)C2)cc1 (stereo not drawn)
Out: 45

In: State, in one line, measured %Inh of COc1ccc(NC(=O)Nc2ccc(C)c(-c3ccc(C(=O)Nc4ccncc4)cc3)c2)cc1
Out: 0

In: State, in one line, measured %Inh of O=c1cc(N2CCOCC2)nc2n(Cc3cccc(Cl)c3)ccn12
Out: 0

In: State, in one line, measured %Inh of FC(F)(F)c1ccc(-c2nn3ncccc3c2-c2ccnc(Nc3cccc(C(F)(F)F)c3)n2)cc1
Out: 0

In: State, in one line, measured %Inh of Nc1nccc2scc(-c3ccc4c(c3)CCN4C(=O)Cc3cc(F)ccc3F)c12
Out: 5

In: State, in one line, measured %Inh of Nc1n[nH]c2nnc(-c3ccccc3)cc12
Out: 0

In: State, in one line, measured %Inh of Cn1ccc2ncnc(Nc3ccc(Oc4cccc(Cl)c4)c(Cl)c3)c21
Out: 34

In: State, in one line, measured %Inh of Oc1ccc2ncnc(Nc3ccc(OCc4ccccc4)cc3)c2c1
Out: 14

In: State, in one line, measured %Inh of N#Cc1ccc(Oc2ccc(Nc3ncnc4cc[nH]c34)cc2Cl)cc1
Out: 19
